System: Leishmania infantum
test.method.notes: MMV: Inhibition of Leishmania infantum (MHOM/MA/BE/67) in vitro.
Assay type: functional, organism-based
pIC50: −log10 of the molar value.
metric: pIC50

// below: answered compounds
Cc1c(C)n(CC(O)CNC2CCCCC2C)c2ccccc12 (configuration not stated)    < 4.49
CCn1c(SCC(=O)Nc2cc(C(F)(F)F)ccc2Cl)nc2ccccc2c1=O    < 4.49
Cc1cc(Nc2ccc3ccccc3c2)n2ncnc2n1    < 4.49
CCCc1c(C)nc2ccccc2c1O    < 4.49
Cc1ccc(Nc2nc(NCCO)c3ccccc3n2)cc1C    5.60
CCOC(=O)C1=C(C)N=c2sc(=Cc3ccccc3O)c(=O)n2C1c1ccc(OC)c2ccccc12 (configuration not stated)    4.79

For each listed entry, give its pIC50.
1. CCOC(=O)c1c[nH]c2c(CC)cccc2c1=O
2. Cc1c(C)n(Cc2ccc(F)cc2)c2ccc(C(=O)NCc3ccco3)cc12
3. Cc1ccc(Cl)cc1N1CCN(CCCNC(=O)C2CCN(c3nc4ccccc4[nH]3)CC2)CC1
4. Cc1nc2ccccc2c(O)c1CC=C(Cl)Cl
5. COc1ccc(N2CCN(C(CNC(=O)CC(C)(C)C)c3ccc4c(c3)OCO4)CC2)cc1 (configuration not stated)
6. CCN(CC)CCCNc1ccnc2cc3ccccc3cc12

< 4.49
< 4.49
5.40
< 4.49
< 4.49
< 4.49
